assay: Human pharmacokinetics, single administration; type: in vivo; details: human, plasma; healthy adults, single oral 500 mg, enteric coated tablet, empty stomach
parameter: AUC(0-inf) (ng·h/mL)
Just the number in ng·h/mL, nothing appended.

The reported value for O[C@H]1CCCN[C@@H]1CCCn1cnc2c(Cl)c(Cl)ccc21 [Active component] in terms of AUC(0-inf) is 2340

====

assay: Human pharmacokinetics, single administration; type: in vivo; settings: human, plasma; healthy adults, single oral 600 mg, enteric coated capsules, empty stomach
parameter: AUC(0-inf) (ng·h/mL)
A number alone suffices; assume ng·h/mL.

# compound O[C@H]1CCCN[C@@H]1CCCn1cnc2c(Cl)c(Cl)ccc21 [Active component] ; its AUC(0-inf) = 1920

====

test: Human pharmacokinetics, single administration; type: in vivo; settings: human, plasma; healthy adults, single oral 600 mg, enteric coated capsules, empty stomach; read-out: tmax (median)
parameter: Tmax (h)
Record the value in h, omitting the unit from your answer.

The compound `O[C@H]1CCCN[C@@H]1CCCn1cnc2c(Cl)c(Cl)ccc21` showed Tmax equal to 2

====

assay: Human pharmacokinetics, single administration; format: in vivo; conditions: human, plasma; healthy adults, single oral 100 mg, enteric coated capsules, empty stomach; read-out: tmax (median)
parameter: Tmax (h)
Kindly answer with a numeric value in h, unit omitted.

Tmax in this record for O[C@H]1CCCN[C@@H]1CCCn1cnc2c(Cl)c(Cl)ccc21 [Active component] : 3

====

assay: Human pharmacokinetics, multiple administration (Day 14); type: in vivo; conditions: human, plasma, oral; healthy adults, 25 mg tablet twice a day, Day 14
parameter: AUC(0-inf) (ng·h/mL)
Answer with a number only, understood to be in ng·h/mL.

Kindly note the recorded AUC(0-inf) for O[C@H]1CCCN[C@@H]1CCCn1cnc2c(Cl)c(Cl)ccc21 [Active component] , which is 301

====

assay: Human pharmacokinetics, multiple administration (Day 14); type: in vivo; conditions: human, plasma, oral; healthy adults, 50 mg tablet twice a day, Day 14
parameter: AUC(0-inf) (ng·h/mL)
Your answer is read as ng·h/mL, so omit the unit and give the number.

Reported AUC(0-inf) of `O[C@H]1CCCN[C@@H]1CCCn1cnc2c(Cl)c(Cl)ccc21` : 565

====

experiment: Pharmacokinetic test after single oral administration in ICR mice; type: in vivo; conditions: mouse, blood, ICR mice (male), 10 mg/kg
parameter: AUC(0-inf) (ng·h/mL)
Dear colleague, please return just the value in ng·h/mL, with no unit written.

AUC(0-inf) reading for O[C@H]1CCCN[C@@H]1CCCn1cnc2c(Cl)c(Cl)ccc21 [First component] : 1190

====

assay: Pharmacokinetic test after single oral administration in ICR mice; assay type: in vivo; conditions: mouse, blood, ICR mice (male), 10 mg/kg
parameter: half-life (h)
Could you give me the number in h? Just the number is fine.

The recorded half-life for `O[C@H]1CCCN[C@@H]1CCCn1cnc2c(Cl)c(Cl)ccc21` is 2.5

====

assay: Human pharmacokinetics, single administration; assay type: in vivo; conditions: human, plasma; healthy adults, single oral 500 mg, enteric coated tablet, empty stomach
parameter: AUC(0-t) (ng·h/mL)
I only need the number, in ng·h/mL, no unit after it.

Lab note: O[C@H]1CCCN[C@@H]1CCCn1cnc2c(Cl)c(Cl)ccc21 [Active component] gave AUC(0-t) of 2280
